Test system: Mus musculus
Test Details: Antiobesity activity in TBU8 high fat diet-induced obese C57/BL6 mouse assessed as decrease in body weight at 30 mg/kg, po administered once daily for 14 days relative to fat control
Assay type: functional, C57Bl/6
Design: scale not given: the % may be the effect or the level left
Quick reference for Activity among some compounds

# Test Smiles, Units Label, Activity
records = [
    ("CCc1c(C(=O)NN2CCCCC2)nn(-c2ccc(Cl)cc2Cl)c1-c1ccc(C2CC2)cc1", "%", 22),
    ("Cc1c(C(=O)NN2CCCCC2)nn(-c2ccc(Br)cc2Cl)c1-c1ccc(C2CC2)cc1", "%", 26),
    ("CCc1c(C(=O)NN2CCCC2)nn(-c2ccc(Cl)cc2Cl)c1-c1ccc(C2CC2)cc1", "%", 21),
    ("Cc1c(C(=O)NN2CCCCC2)nn(-c2ccc(Cl)cc2Cl)c1-c1ccc(Cl)cc1", "%", 24),
]

###

Tested on: Mus musculus
Test Details: Antiobesity activity in TBU8 high fat diet-induced obese C57/BL6 mouse assessed as decrease in body weight at 3 mg/kg, po administered once daily for 14 days relative to fat control
Format: functional, C57Bl/6
Design: scale not given: the % may be the effect or the level left
Quick reference for Activity among some molecules
Test Readout: Activity (%)

# Molecule, Experimental Value
data = [
    ("CCc1c(C(=O)NN2CCCCC2)nn(-c2ccc(Cl)cc2Cl)c1-c1ccc(C2CC2)cc1", 8),
    ("Cc1c(C(=O)NN2CCCCC2)nn(-c2ccc(Br)cc2Cl)c1-c1ccc(C2CC2)cc1", 9),
    ("Cc1c(C(=O)NN2CCCCC2)nn(-c2ccc(Cl)cc2Cl)c1-c1ccc(Cl)cc1 [RIMONABANT]", 9),
    ("CCc1c(C(=O)NN2CCCC2)nn(-c2ccc(Cl)cc2Cl)c1-c1ccc(C2CC2)cc1", 8),
]
